target: IGF2 (Homo sapiens, UniProt P01344); test: SPR (Biacore T200) of recombinant IGF2R domain 11 mutants on immobilised biotinylated IGF2; format: binding; parameters: purchased GroPep; conditions: Table 3; 25° C., HBS-EP pH 7.4
Sequence (P01344 25-91): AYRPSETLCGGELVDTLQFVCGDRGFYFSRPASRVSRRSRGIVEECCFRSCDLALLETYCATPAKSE
Endpoint Name: Kinetics koff (s⁻¹)
Your answer should be a plain number; it is taken to be in s⁻¹.

These recorded examples may help you get a feel for the data.
AB3: IGF2R domain 11 with AB loop mutations E1544K, K1545S, L1547V (YSKSGV) (protein) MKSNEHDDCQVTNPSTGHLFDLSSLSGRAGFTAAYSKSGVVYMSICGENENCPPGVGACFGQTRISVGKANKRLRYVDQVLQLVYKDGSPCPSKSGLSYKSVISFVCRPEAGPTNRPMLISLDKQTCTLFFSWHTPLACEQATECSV	0.044
AB3 Q1569R P1597H S1602H G1603K: domain 11 AB3 + Q1569R, P1597H, S1602H, G1603K (protein) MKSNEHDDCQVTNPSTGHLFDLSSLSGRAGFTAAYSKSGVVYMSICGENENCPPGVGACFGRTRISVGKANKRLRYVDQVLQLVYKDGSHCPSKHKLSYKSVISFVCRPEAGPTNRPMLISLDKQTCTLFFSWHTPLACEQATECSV	0.0108

Could you now consider this next molecule?
Would you kindly share the measured Kinetics koff for AB5 Q1569R P1597K: domain 11 AB5 + Q1569R, P1597K (protein) MKSNEHDDCQVTNPSTGHLFDLSSLSGRAGFTAAYAKGWGVYMSICGENENCPPGVGACFGRTRISVGKANKRLRYVDQVLQLVYKDGSKCPSKSGLSYKSVISFVCRPEAGPTNRPMLISLDKQTCTLFFSWHTPLACEQATECSV ?
0.0091

The origin of these recorded values is patent US10494415B2.
